For each of the molecules below, state its relative viability.
# System: NCI-H1944
# protocol notes: relative viability (nuclei count vs DMSO), 5 days (fraction); higher = more cells survive
# condition notes: first compound 0.1265 µM
Returns: the value as a bare number; no unit string appended.

Specify relative viability for O=C(O)c1ccc(-c2c[nH]c3ncc(-c4ccccc4)cc23)cc1C1CCCC1 + C[C@@H](Oc1cc(-c2cnn(C3CCNCC3)c2)cnc1N)c1c(Cl)ccc(F)c1Cl [Crizotinib] (partner 1 µM) , system NCI-H1944.
1.14

Specify relative viability for O=C(O)c1ccc(-c2c[nH]c3ncc(-c4ccccc4)cc23)cc1C1CCCC1 + CS(=O)(=O)CCNCc1ccc(-c2ccc3ncnc(Nc4ccc(OCc5cccc(F)c5)c(Cl)c4)c3c2)o1 [Lapatinib] (partner 2 µM) , system NCI-H1944.
1

Specify relative viability for O=C(O)c1ccc(-c2c[nH]c3ncc(-c4ccccc4)cc23)cc1C1CCCC1 + N=C(N)NC(=N)NCCc1ccccc1 [Phenformin] (partner 250 µM) , system NCI-H1944.
0.214

Specify relative viability for O=C(O)c1ccc(-c2c[nH]c3ncc(-c4ccccc4)cc23)cc1C1CCCC1 + Cc1nc(NC(=O)N2CCC[C@H]2C(N)=O)sc1-c1ccnc(C(C)(C)C(F)(F)F)c1 [Alpelisib] (partner 2 µM) , system NCI-H1944.
0.94

Specify relative viability for O=C(O)c1ccc(-c2c[nH]c3ncc(-c4ccccc4)cc23)cc1C1CCCC1 + CC(=O)Nc1cccc(-n2c(=O)n(C3CC3)c(=O)c3c(Nc4ccc(I)cc4F)n(C)c(=O)c(C)c32)c1 [Trametinib] (partner 0.02 µM) , system NCI-H1944.
0.437
